TEST TARGET: hERG(DOF) (Homo sapiens, UniProt Q12809)
Sequence (Q12809 whole entry): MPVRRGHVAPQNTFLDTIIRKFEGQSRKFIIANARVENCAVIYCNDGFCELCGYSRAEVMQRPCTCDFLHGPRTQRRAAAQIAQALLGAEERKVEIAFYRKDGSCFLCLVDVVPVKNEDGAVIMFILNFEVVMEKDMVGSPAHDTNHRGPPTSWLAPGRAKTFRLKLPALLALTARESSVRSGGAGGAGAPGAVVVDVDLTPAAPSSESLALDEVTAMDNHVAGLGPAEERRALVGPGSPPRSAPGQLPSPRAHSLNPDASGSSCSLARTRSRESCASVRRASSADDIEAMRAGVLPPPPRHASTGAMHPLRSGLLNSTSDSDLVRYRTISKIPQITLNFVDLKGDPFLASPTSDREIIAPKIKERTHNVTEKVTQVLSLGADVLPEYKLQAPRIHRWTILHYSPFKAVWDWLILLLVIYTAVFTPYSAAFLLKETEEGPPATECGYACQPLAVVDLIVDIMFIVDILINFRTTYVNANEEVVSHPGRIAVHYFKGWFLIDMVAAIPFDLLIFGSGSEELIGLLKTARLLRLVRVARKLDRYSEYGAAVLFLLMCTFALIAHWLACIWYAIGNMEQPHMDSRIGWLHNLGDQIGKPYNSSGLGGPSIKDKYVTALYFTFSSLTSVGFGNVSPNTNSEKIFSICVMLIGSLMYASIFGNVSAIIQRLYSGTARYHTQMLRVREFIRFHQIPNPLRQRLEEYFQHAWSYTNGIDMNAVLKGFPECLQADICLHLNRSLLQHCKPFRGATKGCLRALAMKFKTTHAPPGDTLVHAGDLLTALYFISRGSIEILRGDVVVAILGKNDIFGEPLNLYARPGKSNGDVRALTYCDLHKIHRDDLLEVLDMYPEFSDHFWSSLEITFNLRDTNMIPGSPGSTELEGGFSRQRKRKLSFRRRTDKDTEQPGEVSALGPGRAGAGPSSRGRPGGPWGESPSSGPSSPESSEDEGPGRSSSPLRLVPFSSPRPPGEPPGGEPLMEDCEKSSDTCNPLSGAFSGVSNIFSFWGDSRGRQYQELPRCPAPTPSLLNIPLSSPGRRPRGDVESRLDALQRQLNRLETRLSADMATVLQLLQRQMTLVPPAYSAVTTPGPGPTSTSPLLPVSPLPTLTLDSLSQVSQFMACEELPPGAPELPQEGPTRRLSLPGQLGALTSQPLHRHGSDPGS
pIC50: −log10 of the molar value.
// reported pIC50 for each item listed
PARAMETER: pIC50

compound="Cc1c(-c2ccc3nc(-c4cccc(OC(F)(F)F)c4)cn3c2)[nH]c2ccccc2c1=O [Compound 5]" inequality_sign=< endpoint_result=5.00
compound="Cc1c(-c2ccc3cc(-c4cccc(OC(F)(F)F)c4)nn3c2)[nH]c2ccccc2c1=O [Compound 1]" inequality_sign== endpoint_result=5.40
compound="Cc1c(-c2ccc3nc(Cc4ccc(OC(F)(F)F)cc4)cn3c2)[nH]c2ccccc2c1=O [Compound 2]" inequality_sign== endpoint_result=5.74
compound="Cc1c(-c2ccc3cc(-c4cccc(OC(F)(F)F)c4)cn3c2)[nH]c2ccccc2c1=O [Compound 3]" inequality_sign=< endpoint_result=5.00
